The measurements presented in this section are drawn from ChEMBL document CHEMBL1143599.

# assay.remarks: Effective concentration against Huh 7 cells
# Type: functional, cell-based, Homo sapiens
pEC50: −log10 of the molar value.
observed.property: pEC50

Please review the entries below; each comes with its answer.
Nc1ncnc2c1ncn2[C@@H]1O[C@H](OCP(=O)(O)O)[C@@H](O)[C@H]1O
4.19
C[C@@]1(O)[C@H](O)[C@@H](CCP(=O)(O)O)O[C@H]1n1cnc2c(N)ncnc21
4.46
Nc1ncnc2c1ncn2[C@@H]1C[C@H](OCP(=O)(O)O)[C@@H](O)[C@H]1O
4.52

[A] CC(C)(C)C(=O)SCCOP(=O)(CC[C@H]1O[C@@H](n2cnc3c(N)ncnc32)[C@](C)(O)[C@@H]1O)OCCSC(=O)C(C)(C)C
[B] Nc1ncnc2c1ncn2[C@@H]1O[C@H](CCP(=O)(O)O)[C@@H](O)[C@H]1O
Query :: // pick larger pEC50 from pair: A vs B Your answer should be the label attached to the chosen record.
Result :: A
(A: 4.60, B: 3.70)

* * *

# assay.remarks: Cytotoxicity determined in Huh 7 cells
# Format: cell-based
# study.conditions: human
Collected CC50 values appear next to each entry.
Entry rule: numbers only, all in µM.

Nc1ncnc2c1ncn2[C@@H]1C[C@H](OCP(=O)(O)O)[C@@H](O)[C@H]1O
300

Please examine the following record next.
Query :: Would you mind telling me what CC50 value was observed for "CC(C)(C)C(=O)SCCOP(=O)(CC[C@H]1O[C@@H](n2cnc3c(N)ncnc32)[C@](C)(O)[C@@H]1O)OCCSC(=O)C(C)(C)C" ?
Result :: 30

* * *

# assay.remarks: Cytotoxicity determined in Huh 7 cells
# Assay type: cell-based
# study.conditions: human
Collected CC50 values appear next to each entry.

Nc1ncnc2c1ncn2[C@@H]1O[C@H](CCP(=O)(O)O)[C@@H](O)[C@H]1O
> 300 µM
C[C@@]1(O)[C@H](O)[C@@H](CCP(=O)(O)O)O[C@H]1n1cnc2c(N)ncnc21
> 300 µM

Query :: Would you mind telling me what CC50 value was observed for "Nc1ncnc2c1ncn2[C@@H]1O[C@H](OCP(=O)(O)O)[C@@H](O)[C@H]1O" ?
Result :: > 300 µM
